Measured values drawn from patent US20100260765A1 for this set.

biological target: T1, soluble KDR extracellular domain (ECD) (Calbiochem) (human, UniProt P35968 20-764); test: Limited Antigen ELISA, KDR coat 6.25 ng/mL, supernatant 1:25
T1 construct: extracellular domain; Bought protein; also called KDR-ECD; VEGF Receptor 2 D1-7, Cat. #676490
T1 sequence (P35968 20-764): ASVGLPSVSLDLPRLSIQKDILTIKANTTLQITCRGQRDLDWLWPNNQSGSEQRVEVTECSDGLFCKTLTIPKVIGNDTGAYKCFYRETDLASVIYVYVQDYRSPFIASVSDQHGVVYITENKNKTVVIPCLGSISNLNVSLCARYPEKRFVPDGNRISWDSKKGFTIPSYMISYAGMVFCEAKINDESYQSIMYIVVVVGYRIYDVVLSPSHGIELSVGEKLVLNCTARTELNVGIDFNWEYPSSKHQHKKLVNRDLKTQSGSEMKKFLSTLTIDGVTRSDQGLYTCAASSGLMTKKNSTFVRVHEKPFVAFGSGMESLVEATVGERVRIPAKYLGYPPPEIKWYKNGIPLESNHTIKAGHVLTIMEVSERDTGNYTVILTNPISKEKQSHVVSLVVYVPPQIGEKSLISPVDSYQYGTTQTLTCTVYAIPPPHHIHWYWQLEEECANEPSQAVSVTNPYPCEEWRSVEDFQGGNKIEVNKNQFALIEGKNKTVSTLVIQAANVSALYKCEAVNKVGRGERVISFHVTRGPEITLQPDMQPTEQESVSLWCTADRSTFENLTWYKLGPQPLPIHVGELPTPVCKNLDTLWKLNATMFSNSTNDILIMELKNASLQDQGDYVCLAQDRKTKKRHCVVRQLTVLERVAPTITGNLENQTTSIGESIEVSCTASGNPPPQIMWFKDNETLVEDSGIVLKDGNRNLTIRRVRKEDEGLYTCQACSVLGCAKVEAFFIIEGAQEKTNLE
Measured ELISA reading values are reported for all entries that follow.
Readout Type: ELISA reading

{"columns": ["Binder", "Readout Type", "Measured Result"],
 "data": [
  ["29F7 (antibody, V domains shown, Fully human mAb from XenoMouse hybridoma, tested as hybridoma supernatant) VH: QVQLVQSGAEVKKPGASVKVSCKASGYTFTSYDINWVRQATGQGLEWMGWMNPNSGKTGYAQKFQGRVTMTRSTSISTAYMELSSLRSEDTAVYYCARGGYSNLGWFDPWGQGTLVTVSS VL: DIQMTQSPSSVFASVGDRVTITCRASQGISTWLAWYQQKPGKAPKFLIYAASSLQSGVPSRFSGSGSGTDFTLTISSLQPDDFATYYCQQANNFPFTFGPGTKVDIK", "ELISA reading", 0.51],
  ["24B3 (antibody, V domains shown, Fully human mAb from XenoMouse hybridoma, tested as hybridoma supernatant) VH: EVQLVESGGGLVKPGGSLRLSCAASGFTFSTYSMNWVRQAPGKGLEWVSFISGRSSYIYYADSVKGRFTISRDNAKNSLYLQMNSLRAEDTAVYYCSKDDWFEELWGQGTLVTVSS VL: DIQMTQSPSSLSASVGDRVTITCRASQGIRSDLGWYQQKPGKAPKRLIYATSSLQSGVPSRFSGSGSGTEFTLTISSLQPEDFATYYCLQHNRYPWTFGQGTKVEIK", "ELISA reading", 0.08]
]}
